# Target system: Human A2a Adenosine Receptor (Homo sapiens, UniProt P29274)
# Construct: purchased Receptor Biology, Inc., Beltsville, Md; RB-HA2a
# Sequence (P29274 whole entry): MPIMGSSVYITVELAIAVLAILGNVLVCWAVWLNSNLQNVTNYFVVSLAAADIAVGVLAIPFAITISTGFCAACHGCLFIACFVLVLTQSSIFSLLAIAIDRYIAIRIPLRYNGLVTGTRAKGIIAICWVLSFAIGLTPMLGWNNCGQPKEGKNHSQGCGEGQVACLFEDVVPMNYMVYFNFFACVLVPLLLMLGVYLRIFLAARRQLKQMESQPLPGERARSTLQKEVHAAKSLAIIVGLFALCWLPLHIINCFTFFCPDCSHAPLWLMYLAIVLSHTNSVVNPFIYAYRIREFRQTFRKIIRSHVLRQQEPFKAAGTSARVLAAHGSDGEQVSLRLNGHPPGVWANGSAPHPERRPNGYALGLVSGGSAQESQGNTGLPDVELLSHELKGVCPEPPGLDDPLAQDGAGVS
# Method notes: Human Adenosine A2a Receptor Competition Binding Assay ([3H]-SCH 58261 displacement)
# Run parameters: Table I; human A2a membranes, [3H]-SCH 58261 0.5 nM, Cheng-Prusoff; read-out: Activity (Ki)
Test readout: Ki (nM)

Please review the following examples before continuing.
- Nc1nc2ccc(F)cc2n2c(=O)n(Cc3ccc(F)cc3)nc12: 1
- CC(=O)Nc1ccccc1Cn1nc2c(N)nc3ccccc3n2c1=O: 7.4
- Nc1nc2ccc(F)cc2n2c(=O)n(Cc3c(F)cccc3C(F)(F)F)nc12: 2.2
- CC(O)c1ccc2c(c1)nc(N)c1nn(Cc3ccccc3)c(=O)n12 (stereo not shown): 54.9

[I] CN(C)C(=O)c1ccccc1Cn1nc2c(N)nc3ccccc3n2c1=O
[II] Nc1nc2ccccc2n2c(=O)n(Cc3cc(F)cc(F)c3)nc12
[III] Nc1nc2cccnc2n2c(=O)n(Cc3ccccc3)nc12
[IV] Nc1ccccc1Cn1nc2c(N)nc3ccccc3n2c1=O
[V] Nc1nc2ccccc2n2c(=O)n(Cc3ccccc3CO)nc12
## Task Please list these molecules in decreasing order of Ki. Write the labels out in the order the request specifies.
## Result III, I, II, V, IV

[1] Nc1nc2cc(CO)ccc2n2c(=O)n(Cc3ccccc3F)nc12
[2] N=c1n(Cc2ccccc2)nc2c(N)nc3ccccc3n12
[3] Nc1nc2ccc(F)cc2n2c(=O)n(Cc3c(F)cccc3F)nc12
## Task Please list these molecules in decreasing order of Ki. Write the labels out in the order the request specifies.
## Result 1, 2, 3

[1] COc1ccc2nc(N)c3nn(Cc4ccccc4C(F)(F)F)c(=O)n3c2c1
[2] Cc1cccc2c1nc(N)c1nn(Cc3ccccc3)c(=O)n12
## Task Which one would you say has the larger Ki value: 1 , or 2 ? When you have decided, please share the label of that item.
## Result 1

[A] CC(C)(O)c1ccccc1Cn1nc2c(N)nc3ccccc3n2c1=O
[B] CCCCNc1nc2ccc(F)cc2n2c(=O)n(Cc3ccccc3)nc12
## Task Which one would you say has the larger Ki value: A , or B ? When you have decided, please share the label of that item.
## Result B
(B: 28.9 nM, A: 2 nM)

[1] Nc1nc2ccc(Cl)cc2n2c(=O)n(Cc3ccccc3)nc12
[2] COC(=O)c1ccc2nc(N)c3nn(Cc4ccccc4)c(=O)n3c2c1
[3] Nc1nc2cc(F)c(F)cc2n2c(=O)n(Cc3ccccc3)nc12
## Task Order by Ki, ascending. Write the labels out in the order the request specifies.
## Result 3, 1, 2
(3: 1.4 nM, 1: 2.7 nM, 2: 70.8 nM)

###

# Target system: Human A2a Adenosine Receptor (Homo sapiens, UniProt P29274)
# Construct: purchased Receptor Biology, Inc., Beltsville, Md; RB-HA2a
# Method notes: Human Adenosine A2a Receptor Competition Binding Assay ([3H]-SCH 58261 displacement)
# Run parameters: assay of Example 25; read-out: Ki value for the adenosine A2a receptor
Test readout: Ki (nM)

- Nc1nc2ccccc2n2nc(Cc3ccccc3)nc12: 0.7
- Nc1nc2ccccc2c2nc(Cc3ccccc3)cn12: 0.7

###

# Target system: Human A2a Adenosine Receptor (Homo sapiens, UniProt P29274)
# Construct: purchased Receptor Biology, Inc., Beltsville, Md; RB-HA2a
# Method notes: Human Adenosine A2a Receptor Competition Binding Assay ([3H]-SCH 58261 displacement)
# Run parameters: Table I; human A2a membranes, [3H]-SCH 58261 0.5 nM, Cheng-Prusoff; read-out: Activity (Ki)
Test readout: Ki (nM)

Please review the following examples before continuing.
* CS(=O)(=O)c1ccccc1Cn1nc2c(N)nc3ccccc3n2c1=O | 8.3
* Nc1nc2ccccc2n2c(=O)n(CCc3ccccc3)nc12 | 29.2
* Nc1nc2ccccc2n2c(=O)n(Cc3c(Cl)cccc3Cl)nc12 | 3.2

[I] Nc1nc2ccccc2n2c(=O)n(Cc3c(F)cccc3F)nc12
[II] CC(c1ccccc1)n1nc2c(N)nc3ccccc3n2c1=O (stereo not drawn)
[III] COc1ccc2nc(N)c3nn(Cc4ccccc4)c(=O)n3c2c1
## Task Please list these molecules in decreasing order of Ki. Write the labels out in the order the request specifies.
## Result II, III, I

Where do these numbers come from? They come from patent US8435994B2.
